System: SF-268
Experiment: NCI tumour cell line growth inhibition, 48 h
Active and inactive are the calls of the source. No stated cut-off is given here; in the data, active = GI50 up to about 1.1 µM and inactive = higher.
I would appreciate it if you answered using one of these outcomes: 1 (yes) = active, 0 (no) = inactive

> print(dat)
                                   compound  grouplabel
1  O=C1/C(=C2\Sc3c(ccc(Cl)c3Cl)C2=O)Sc2c1ccc(Cl)c2Cl      0 (no)
2  O=c1cc(-c2ccc(O)cc2)oc2cc(O[C@@H]3O[C@H](CO)[C@@H](O)[C@H](O)[C@H]3O)cc(O)c12 [APIGETRIN]      0 (no)
3  CCCCN1C(=O)N(c2ccc(OCC)cc2)C2N(CCCC)C1C(C)(C)C2(C)C (centres undefined)      0 (no)
4    O=C1C(Cl)=C(NCCN2CCOCC2)C(=O)c2ncccc21      0 (no)

Incoming: How did this test come out for COc1ccc(NC(C)=O)cc1N1C(=O)/C(=C\c2ccccc2)SC1c1cc(OC)c(OC)c(OC)c1 (centres undefined) ?
Outgoing: 0 (no)

Incoming: Same thing, different compound: CC(=O)c1cccc(Nc2nc3ccc(Cl)cc3c3[nH]c4ccccc4c23)c1
Outgoing: 0 (no)

Incoming: Repeat for the following compound: CCc1nc(N)nc(N)c1-c1ccc(NCCc2ccccc2)c([N+](=O)[O-])c1
Outgoing: 1 (yes)

Incoming: Try CNc1ncnc2c1cnn2Cc1cn(COCC(O)CO)nn1 (centres undefined) next.
Outgoing: 0 (no)

Incoming: CC(=O)O[C@@H]1C2=C(C)C=C(O2)[C@H]2O[C@]2(C)C[C@H]2C=C(C(=O)O2)[C@H](OC(C)=O)CC1[C@@]1(C)CO1 (some centres undefined) , same question.
Outgoing: 0 (no)

Incoming: Can you handle CC1(C)CC(=O)c2c(nc3c(ccc4ccccc43)c2-c2ccc(NC(=O)CCCC(=O)Nc3ccc(-c4c5c(nc6c4ccc4ccccc46)CC(C)(C)CC5=O)cc3)cc2)C1 next?
Outgoing: 0 (no)

###

Test system: T47D
Assay: NCI tumour cell line growth inhibition, 48 h
Activity calls are given as the source filed them. Rule as the data show it: active = GI50 up to about 1.1 µM and inactive = higher. Where a SMILES comes first, the peptide text is derived from it. The star is where a group is joined. Cbz = O=C(OCc1ccccc1)*; OBn = c1ccc(CO*)cc1
Would you mind telling me the reported GI50 of each entry?

Illustrative cases are given below, each with its answer.
compound	GI50
COC1C=COC2(C)Oc3c(C)c(O)c4c(O)c(c(C5SCCS5)c(O)c4c3C2=O)NC(=O)/C(C)=C\C=CC(C)C(O)C(C)C(O)C(C)C(OC(C)=O)C1C (centres undefined)	3.1 µM (inactive)
COC(=O)C(Cc1ccc(O)cc1)NC(=O)C(CC(=O)OCc1ccccc1)NC(=O)OCc1ccccc1 (centres undefined) (Cbz-Asp(OBn)-Tyr-OMe; configuration not given here)	19.5 µM (inactive)
N=c1sc2ccccc2n1CC[S-].c1ccc2c(c1)sc1[n+]2CCS1	23.6 µM (inactive)
COc1ccc2[nH]c3c(c2c1)CCc1ccccc1-3	> 100 µM (inactive)
CCOC(=O)c1c(N)nn2c1cc1cccccc12	22.6 µM (inactive)
Cc1ccc(O)c(C(c2ccc(C(c3cc(C)ccc3O)c3cc(C)ccc3O)cc2)c2cc(C)ccc2O)c1	1.75 µM (inactive)
CCc1ccc2nccc(NCCCN(C)C)c2c1[N+](=O)[O-]	> 100 µM (inactive)
CC1(C)CC(=O)c2c(nc3c(ccc4ccccc43)c2-c2ccc(NC(=O)CCCC(=O)Nc3ccc(-c4c5c(nc6c4ccc4ccccc46)CC(C)(C)CC5=O)cc3)cc2)C1	> 100 µM (inactive)

Here is the next item to consider.
Incoming: // lookup GI50 for COc1cc(C=C2C(C)=NN(c3cccc(Cl)c3)C23SCC(=O)N3c2nc3ccccc3s2)ccc1O (centres undefined)
Outgoing: 33.3 µM (inactive)

###

Tested on: SNB-75
Test: NCI tumour cell line growth inhibition, 48 h
Active and inactive are the calls of the source. Rule as the data show it: active = GI50 up to about 1.1 µM and inactive = higher.
valueType: GI50

> print(dat)
                                   compound            measvalue
1  CCOc1cc(NC(C)=O)ccc1C(=O)NN1C(=O)CSC1c1ccc(O)c(OC)c1 (configuration not stated)   85.3 µM (inactive)
2           CCOC(=O)COc1ccc2c(C)cc(=O)oc2c1  > 100 µM (inactive)
3  CC(=O)O[C@H]1CC[C@@]2(C)C(=CC[C@H]3C(CC#N)[C@@](C)(C#N)CCC32)C1 (some centres not stated)   69.8 µM (inactive)

For every record below, what is its GI50?
1. CCOC(=O)/C(Cl)=C(\C)Nc1nc2c(ccc3ccccc32)s1
2. O=C1/C(=C\Oc2ccc(F)cc2)N2CCC1CC2
3. COc1ccc2[nH]c3c(c2c1)CCc1ccccc1-3

Outgoing:
1: 14.6 µM (inactive); 2: 24.8 µM (inactive); 3: 26.1 µM (inactive)

Batch of 3 compounds: report GI50 for each.
1. O=c1c2ccccc2nc2n1CCc1c-2[nH]c2cc3c(cc12)OCO3
2. N=c1sc2ccccc2n1CC[S-].c1ccc2c(c1)sc1[n+]2CCS1
3. O=C1C2CC(Cl)C(SSC3CC4C(=O)N(SC(Cl)(Cl)C(Cl)Cl)C(=O)C4CC3Cl)CC2C(=O)N1SC(Cl)(Cl)C(Cl)Cl (configuration not stated)

Outgoing:
6.61 µM (inactive)
41.5 µM (inactive)
2.05 µM (inactive)

For each of the items listed, what is its GI50?
1. Cc1ccc(S(=O)(=O)OC2CS[S+]([O-])CC2OS(=O)(=O)c2ccc(C)cc2)cc1 (configuration not stated)
2. CC(=O)c1cccc(NC(=O)/C(=N\NC(C)(C)C)c2c(O)c3ccccc3oc2=O)c1
3. CN1N(c2ccccc2)C(=O)C2=NC=C(C#N)C(=N)C21C (configuration not stated)
4. CCON1CC(C(=O)OC)=C(O)C1=O
5. COc1cc2c(cc1OC)C1Cc3cc(OC)c(OC)cc3N1CC2 (configuration not stated)

Outgoing:
["20.6 µM (inactive)", "39.2 µM (inactive)", "> 100 µM (inactive)", "> 100 µM (inactive)", "21.4 µM (inactive)"]

###

Test system: HL-60
Assay: NCI tumour cell line growth inhibition, 48 h
Active and inactive are the calls of the source. No stated cut-off is given here; in the data, active = GI50 up to about 1.1 µM and inactive = higher.
Pick one: active, inactive

Incoming: Lab log entry: Cc1cccc(NC(=O)CSc2nnc(Cc3ccccc3)o2)c1 — outcome as called in the assay?
Outgoing: inactive

Incoming: Similarly, CSC(C1c2ccccc2N(c2ccc(C)cc2)C2=NC(=O)N(C)C(=O)C21Cl)S(=O)(=O)c1ccc(C)cc1 (centres undefined) ?
Outgoing: inactive

Incoming: // query: CC1=CC2C(O1)C1C(=O)C=CC(=O)C1=CC2[N+](=O)[O-] (centres undefined)
Outgoing: inactive

Incoming: # repeat for CN(C)c1n/c(=N/c2ccc3ccccc3c2)ss1
Outgoing: inactive

Incoming: How about this compound: C/C(=N\NC(=S)NCCNC(=S)N/N=C(\C)c1ccccn1)c1ccccn1
Outgoing: active

Incoming: Can you handle CCOC(=O)/C(=N\Nc1ccc(-n2c(C)nc3ccccc3c2=O)cc1)C(C)=O next?
Outgoing: inactive

Incoming: Same again, this time with CC(C)N1CCN(c2ccc(OCC3COC(Cn4cncn4)(c4ccc(Cl)cc4Cl)O3)cc2)CC1 (centres undefined) [TERCONAZOLE]
Outgoing: inactive

Incoming: COC1C=COC2(C)Oc3c(C)c(O)c4c(O)c(c(C5SCCS5)c(O)c4c3C2=O)NC(=O)/C(C)=C\C=CC(C)C(O)C(C)C(O)C(C)C(OC(C)=O)C1C (centres undefined) ?
Outgoing: inactive

###

Tested on: SK-MEL-2
Test: NCI tumour cell line growth inhibition, 48 h
The source made the active and inactive calls. Cut-off read from the data, not from the text of the source: active = GI50 up to about 1.1 µM and inactive = higher.
Permitted responses: active, inactive

Take a look at these entries with their results.
compound	groupLabel
COCC(C#N)NC1CC(OC2CC(O)(C(=O)CO)Cc3c(O)c4c(c(O)c32)C(=O)c2c(OC)cccc2C4=O)OC(C)C1O (stereo not drawn)	active
CN(C)c1n/c(=N/c2ccc3ccccc3c2)ss1	inactive
CCCNCCCCC(NC(C)=O)C(=O)NCc1ccccc1 (stereo not drawn)	inactive

Incoming: // return assay outcome for O=C(Nc1cccc(C(F)(F)F)c1)c1cc(Br)cc(Br)c1O
Outgoing: inactive

Incoming: Please answer likewise for COc1ccc2nc(-n3c(/C=C/c4ccccc4O)nc4ccccc4c3=O)sc2c1
Outgoing: inactive

Incoming: Now this one: COC1C=COC2(C)Oc3c(C)c(O)c4c(O)c(c(C5SCCS5)c(O)c4c3C2=O)NC(=O)/C(C)=C\C=CC(C)C(O)C(C)C(O)C(C)C(OC(C)=O)C1C (stereo not drawn)
Outgoing: inactive

Incoming: Likewise for CC(C)(C)OC(=O)C1=C(N)N(Cc2ccccc2)C2(C)C=CC(=O)C=C12 (stereo not drawn) ?
Outgoing: inactive

###

For each entry below, report its GI50 value.
Test system: Malme-3M
Assay: NCI tumour cell line growth inhibition, 48 h
Calls of active or inactive are those of the source. No stated cut-off is given here; in the data, active = GI50 up to about 1.1 µM and inactive = higher.

molecule	GI50
N=C(N)SCCSC(=N)N	> 100 µM (inactive)
COC(=O)c1c2c(cc3c1CC1(Cc4ccccc4C1=O)C3)CCC2 (stereo not drawn)	20.3 µM (inactive)
C/C1=C\CC[C@@]2(C)O[C@@H]2C[C@@H]2[C@H](C/C(C)=C/CC1)OC(=O)C21CC1	> 100 µM (inactive)

Give me GI50 for each of these molecules, listed below.
1. NC(CCCCNCc1ccccc1O)C(=O)O (stereo not drawn)
2. CC(C)N1CCN(c2ccc(OCC3COC(Cn4cncn4)(c4ccc(Cl)cc4Cl)O3)cc2)CC1 (stereo not drawn) [TERCONAZOLE]

Outgoing:
["> 100 µM (inactive)", "7.85 µM (inactive)"]

Items follow; give GI50 for each.
1. COc1cc(-c2n[nH]cc2CCCC(=O)Nc2ccccc2[N+](=O)[O-])ccc1O
2. CC1=NN(C(=O)CC(=O)Nc2ccc(C)cc2)C(=O)C1/N=N\c1ccc(S(=O)(=O)c2ccc(/N=N/C3C(=O)N(C(=O)CC(=O)Nc4ccc(C)cc4)N=C3C)cc2)cc1 (stereo not drawn)
3. c1ccc2c(c1)CCc1c-2n(CCN2CCOCC2)c2ccccc12

Outgoing:
19.2 µM (inactive)
67 µM (inactive)
13.6 µM (inactive)
